B1: PKD2L1 (parent)
chain: VFIFYYVVEEILELHIHRLRYLSS

variants of: B1; test: protein stability index of a GFP-peptide fusion (GPS, HEK-293T) (PSI 1-6); higher = more stable; conditions: c terminus: a fixed tail appended;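 further: lentivirally expressed fusions sorted by FACS into six bins by GFP to DsRed ratio, PSI derived from sequencing read proportions per bin multiplied by bin number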
Cut-off 4 on protein stability index, inclusive. At or above means 1 (yes); below means 0 (no).

Quick check, protein stability index >= 4? F4K
0 (no)

Test whether the variant F2M records protein stability index of 4 or higher.
1 (yes)

Is the recorded value of protein stability index equal to or greater than 4 for this variant? H17Q
1 (yes)

protein stability index >= 4 for L22K ?
0 (no)

Does protein stability index meet or surpass 4 for R20Y ?
0 (no)

Is protein stability index for Y21R at or above 4?
0 (no)

Does the reported protein stability index for L14P fall at or above the 4 mark?
0 (no)

Can L12K be said to have protein stability index at or above 4?
0 (no)
